Assay System: human CaSR (Homo sapiens, UniProt P41180)
Sequence (P41180 20-1078): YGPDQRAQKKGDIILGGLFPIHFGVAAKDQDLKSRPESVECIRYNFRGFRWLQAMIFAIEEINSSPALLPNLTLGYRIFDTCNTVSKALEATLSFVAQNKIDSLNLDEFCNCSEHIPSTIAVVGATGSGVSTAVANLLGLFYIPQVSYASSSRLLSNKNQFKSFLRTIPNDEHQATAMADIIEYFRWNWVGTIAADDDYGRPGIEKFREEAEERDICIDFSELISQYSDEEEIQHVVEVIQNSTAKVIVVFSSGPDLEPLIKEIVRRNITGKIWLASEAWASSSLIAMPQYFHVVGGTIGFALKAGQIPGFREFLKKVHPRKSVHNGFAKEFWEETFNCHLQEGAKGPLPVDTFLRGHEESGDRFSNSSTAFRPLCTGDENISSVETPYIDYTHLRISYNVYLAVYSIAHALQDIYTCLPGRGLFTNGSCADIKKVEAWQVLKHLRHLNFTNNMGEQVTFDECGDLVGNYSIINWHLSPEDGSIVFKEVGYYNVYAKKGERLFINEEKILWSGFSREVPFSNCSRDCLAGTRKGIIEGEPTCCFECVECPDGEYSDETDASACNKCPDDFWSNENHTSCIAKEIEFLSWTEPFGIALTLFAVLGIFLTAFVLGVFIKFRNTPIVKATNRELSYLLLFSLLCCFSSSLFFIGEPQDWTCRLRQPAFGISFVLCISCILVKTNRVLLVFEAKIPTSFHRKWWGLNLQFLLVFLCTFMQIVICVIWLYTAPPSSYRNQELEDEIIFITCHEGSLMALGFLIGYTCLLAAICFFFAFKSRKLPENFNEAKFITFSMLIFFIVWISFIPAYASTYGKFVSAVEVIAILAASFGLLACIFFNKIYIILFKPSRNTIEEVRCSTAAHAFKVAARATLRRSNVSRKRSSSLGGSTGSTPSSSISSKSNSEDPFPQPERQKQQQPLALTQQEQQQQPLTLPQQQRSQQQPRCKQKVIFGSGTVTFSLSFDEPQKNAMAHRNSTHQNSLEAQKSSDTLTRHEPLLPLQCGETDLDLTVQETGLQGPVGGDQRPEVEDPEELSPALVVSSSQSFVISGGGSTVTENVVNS
Assay Details: Functional whole cell assay (modulation of human CaSR), IP1 accumulation in CHO-K1 cells
Applied Conditions: CHO-K1 cells stably expressing human CaSR, final Ca2+ 1.9 mM, IP1 HTRF; concentration giving 50% of maximum agonistic response
Measured Quantity: EC50

The examples below pair each entry with its known result.
Task item: Tell me the measured EC50 of COc1cc([C@@H](C)N[C@H]2CC[C@@H](c3ccc(C(=O)NCCNC(=O)C(O)CO)cc3)C2)ccc1F (some centres unmarked) [Compound 102] , please.
Reply: 200 to 1000 nM

Task item: Now consider COc1cc([C@@H](C)N[C@H]2CC[C@@H](c3ccc(C(=O)NCCNC(=O)C(N)=O)cc3)C2)ccc1F [Compound 104] and answer again.
Reply: < 200 nM

Task item: Now consider COc1cc([C@@H](C)N[C@H]2CC[C@@H](c3ccc(C(=O)NCCNC(=O)CS(C)(=O)=O)cc3)C2)ccc1F [Compound 105] and answer again.
Reply: < 200 nM

Task item: Now consider COc1cc([C@@H](C)N[C@H]2CC[C@@H](c3ccc(C(=O)NCCNC(=O)CO)cc3)C2)ccc1F [Compound 103] and answer again.
Reply: < 200 nM

As a next step, examine the molecule that follows.
Task item: Tell me the measured EC50 of COc1cc([C@@H](C)N[C@H]2CC[C@@H](c3ccc(C(=O)NCCNC(=O)c4nc[nH]n4)cc3)C2)ccc1F [Compound 101] , please.
Reply: < 200 nM
